assay.target: recombinant rat VR1 (rVR1/HEK293) (Rattus norvegicus)
assay.info: Broadly stimulated recombinant rat VR1 functional assay (Ca2+ influx, FLIPR)
condition.label: IC50, Low pH, recombinant rat VR1, Ca2+ influx, stimulus low pH (pH 5.9)
property: pIC50
Worth noting: pIC50 values are minus log10 of concentrations stated in mol/L.

// fetch pIC50 given entry Oc1cc2c(cc1O)CN(C(=S)NCCc1ccc(Cl)cc1)CCC2 [Capsazepine, capsazepine]
5.30

---

Test system: Carrageenan paw-induced thermal hyperalgesia
assay.info: Carrageenan paw-induced thermal hyperalgesia
Type: in vivo
condition.label: rat, po, reversal of carrageenan thermal hyperalgesia; read-out: CgHP ED50
Procedure: Each rat is placed on a heated surface (51° C.) in order to measure the time necessary to elicit a response, and an initial (baseline) response time to a thermal stimuli was recorded for each animal. A response is defined as any shaking, licking, or tucking of the treated paw or jumping. […] Two hours later, the response time of the animal to the thermal stimulus was evaluated and compared to the animal's baseline response time. This shorter response time was recorded as percent hyperalgesia (% H). […]
Exercise: for every item that follows, state its recorded ED50.
Field format: number, assumed mg/kg, no unit text.

// fetch ED50 given entry O=C(NCc1ccc(C(F)(F)F)cc1)Nc1cccc2ccc(O)cc12
20

// fetch ED50 given entry O=C(NCc1ccc(Cl)c(C(F)(F)F)c1)Nc1cccc2ccc(O)cc12
0.354

// fetch ED50 given entry CC(C)(C)c1ccc(CNC(=O)Nc2cccc3cnccc23)cc1
0.276

// fetch ED50 given entry O=C(NCc1ccc(C(F)(F)F)cc1)Nc1cccc2cnccc12
0.804

---

Exercise: for every item that follows, state its recorded IC50.
assay.target: human VR1 (Homo sapiens)
Construct: expressed in transfected cells; host or cells: HEK293
assay.info: Broadly stimulated recombinant human VR1 functional assay (Ca2+ influx, FLIPR)
Format: cell-based
condition.label: recombinant human VR1, Ca2+ influx, stimulus low pH (pH 6.5); read-out: IC50, Low pH
Field format: number, assumed µM, no unit text.

Lab note: record IC50 of Oc1cc2c(cc1O)CN(C(=S)NCCc1ccc(Cl)cc1)CCC2 [Capsazepine, capsazepine] tested on human VR1 (Homo sapiens).
0.11

Lab note: record IC50 of Cl.Cl.Cl.Cl.Cl.Cl.N.N.N.N.N.N.N.N.N.N.N.N.N.N.[O-2].[O-2].[Ru+3].[Ru+3].[Ru+4] tested on human VR1 (Homo sapiens).
0.5

---

assay.target: human VR1 (Homo sapiens, UniProt Q8NER1)
Construct: expressed in transfected cells; host or cells: HEK293
Sequence (Q8NER1 whole entry): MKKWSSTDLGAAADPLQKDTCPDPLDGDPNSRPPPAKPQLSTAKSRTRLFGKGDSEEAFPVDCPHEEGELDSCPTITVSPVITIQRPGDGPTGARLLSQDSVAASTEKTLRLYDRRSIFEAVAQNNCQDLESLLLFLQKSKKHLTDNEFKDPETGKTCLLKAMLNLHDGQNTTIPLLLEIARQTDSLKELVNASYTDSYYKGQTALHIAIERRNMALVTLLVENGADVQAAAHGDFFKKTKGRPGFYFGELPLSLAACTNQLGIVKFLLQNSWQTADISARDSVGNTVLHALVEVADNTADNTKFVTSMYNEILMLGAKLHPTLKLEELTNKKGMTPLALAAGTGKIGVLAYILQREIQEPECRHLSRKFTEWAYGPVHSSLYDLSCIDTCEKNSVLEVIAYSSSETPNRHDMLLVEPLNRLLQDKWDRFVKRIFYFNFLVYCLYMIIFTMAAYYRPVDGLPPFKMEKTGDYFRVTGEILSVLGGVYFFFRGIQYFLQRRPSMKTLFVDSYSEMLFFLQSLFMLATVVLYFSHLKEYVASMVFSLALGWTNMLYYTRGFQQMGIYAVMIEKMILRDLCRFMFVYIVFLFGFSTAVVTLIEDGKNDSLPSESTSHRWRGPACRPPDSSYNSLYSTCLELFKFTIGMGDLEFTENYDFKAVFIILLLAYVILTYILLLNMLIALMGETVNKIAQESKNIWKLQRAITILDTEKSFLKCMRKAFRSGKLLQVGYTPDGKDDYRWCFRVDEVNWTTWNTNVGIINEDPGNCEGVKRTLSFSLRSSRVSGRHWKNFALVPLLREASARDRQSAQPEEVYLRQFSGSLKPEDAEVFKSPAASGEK
assay.info: Human VR1 functional assay (FLIPR intracellular Ca2+, capsaicin challenge)
Type: cell-based
condition.label: read-out: In vitro functional assays hIC50 or EC50
param class (str): category from IC50 or EC50; see ranges bucket A (below 30 nM), bucket B (30 nM to below 100 nM), bucket C (100 nM or more)

Note: place this compound into its band. Item: O=C(NCc1ccc(Cl)c(Cl)c1)Nc1cccc2cnccc12
bucket A

Note: place this compound into its band. Item: CN(CC1CCCCC1)c1ccc(CNC(=O)Nc2cnc3ccccc3c2)cc1
bucket C

Note: place this compound into its band. Item: O=C(NCc1ccc(OC(F)(F)F)cc1)Nc1cccc2ccc(O)cc12
bucket A

Note: place this compound into its band. Item: O=C(NCc1ccc(OC(F)(F)F)cc1)Nc1cccc2cnccc12
bucket A

Note: place this compound into its band. Item: O=C(NCc1cccc(C(F)(F)F)c1)Nc1cccc2ccc(O)cc12
bucket A

Note: place this compound into its band. Item: O=C(NCc1cccnc1)Nc1cccc2ccc(O)cc12
bucket C

Note: place this compound into its band. Item: O=C(NCc1ccc(C(F)(F)F)nc1)Nc1cccc2ccc(O)cc12
bucket B

Note: place this compound into its band. Item: O=C(NCCc1ccc(Cl)cc1)Nc1cccc2cnccc12
bucket B

---

assay.target: human VR1 (Homo sapiens, UniProt Q8NER1)
Construct: expressed in transfected cells; host or cells: HEK293
assay.info: Broadly stimulated recombinant human VR1 functional assay (Ca2+ influx, FLIPR)
Assay type: cell-based
property: EC50 (µM)
Field format: number, assumed µM, no unit text.

Lab note: record EC50 of CCCCC/C=C\C/C=C\C/C=C\C/C=C\CCCC(=O)NCCO [anandamide, Anandamide] tested on human VR1 (Homo sapiens, UniProt Q8NER1).
3

---

assay.target: recombinant rat VR1 (rVR1/HEK293) (Rattus norvegicus, UniProt O35433)
Sequence (O35433 whole entry): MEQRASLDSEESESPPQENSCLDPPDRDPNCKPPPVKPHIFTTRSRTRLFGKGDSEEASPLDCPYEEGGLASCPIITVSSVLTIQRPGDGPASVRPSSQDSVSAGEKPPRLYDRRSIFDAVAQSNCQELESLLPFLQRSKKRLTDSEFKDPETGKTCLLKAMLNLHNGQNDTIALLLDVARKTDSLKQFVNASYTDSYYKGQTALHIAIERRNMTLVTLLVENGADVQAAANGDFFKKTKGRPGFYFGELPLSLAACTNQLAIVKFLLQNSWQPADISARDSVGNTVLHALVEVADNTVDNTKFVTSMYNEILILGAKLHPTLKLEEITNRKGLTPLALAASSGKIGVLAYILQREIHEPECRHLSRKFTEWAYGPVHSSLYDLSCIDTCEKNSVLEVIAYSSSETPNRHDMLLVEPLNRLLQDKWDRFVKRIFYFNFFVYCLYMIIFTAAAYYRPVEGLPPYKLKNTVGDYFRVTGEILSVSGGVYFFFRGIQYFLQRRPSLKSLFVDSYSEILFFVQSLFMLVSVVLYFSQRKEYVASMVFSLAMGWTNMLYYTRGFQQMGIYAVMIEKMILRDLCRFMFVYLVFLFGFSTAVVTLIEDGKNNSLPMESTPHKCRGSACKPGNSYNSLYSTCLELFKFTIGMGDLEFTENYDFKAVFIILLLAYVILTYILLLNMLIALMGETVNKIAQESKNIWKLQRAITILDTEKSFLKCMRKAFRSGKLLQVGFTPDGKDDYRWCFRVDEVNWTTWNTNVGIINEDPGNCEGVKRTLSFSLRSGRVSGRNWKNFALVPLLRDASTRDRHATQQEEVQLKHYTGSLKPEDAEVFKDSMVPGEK
assay.info: Broadly stimulated recombinant rat VR1 functional assay (Ca2+ influx, FLIPR)
condition.label: read-out: IC50, PKC phosphorylation; recombinant rat VR1, Ca2+ influx, stimulus 300 nM PMA
property: pIC50
Worth noting: pIC50 values are minus log10 of concentrations stated in mol/L.

Lab note: record pIC50 of Cl.Cl.Cl.Cl.Cl.Cl.N.N.N.N.N.N.N.N.N.N.N.N.N.N.[O-2].[O-2].[Ru+3].[Ru+3].[Ru+4] [Ruthenium Red, ruthenium red] tested on recombinant rat VR1 (rVR1/HEK293) (Rattus norvegicus, UniProt O35433).
6.52

---

assay.target: human VR1 (Homo sapiens, UniProt Q8NER1)
Construct: expressed in transfected cells; host or cells: HEK293
assay.info: Human VR1 functional assay (FLIPR intracellular Ca2+, capsaicin challenge)
Format: cell-based
condition.label: read-out: In vitro functional assays hIC50 or EC50
Exercise: for every item that follows, state its recorded IC50 or EC50.
Field format: number, assumed µM, no unit text.

// fetch IC50 or EC50 given entry O=C(NCc1ccc(C(F)(F)F)cc1)Nc1cccc2ccc(O)cc12
0.004

// fetch IC50 or EC50 given entry O=C(NCc1cccc(C(F)(F)F)c1)Nc1cccc2cnccc12
0.011

// fetch IC50 or EC50 given entry O=C(NCc1ccc(Cl)c(Cl)c1)Nc1cccc2ccc(O)cc12
0.015

---

assay.target: human VR1 (Homo sapiens, UniProt Q8NER1)
Construct: expressed in transfected cells; host or cells: HEK293
assay.info: Human VR1 functional assay (FLIPR intracellular Ca2+, capsaicin challenge)
Type: cell-based
condition.label: read-out: In vitro functional assays hIC50 or EC50
property: IC50 or EC50 (nM)
Field format: number, assumed nM, no unit text.

Lab note: record IC50 or EC50 of O=C(NCCc1ccc(OC(F)(F)F)cc1)Nc1cccc2cnccc12 tested on human VR1 (Homo sapiens, UniProt Q8NER1).
11

Lab note: record IC50 or EC50 of CN(Cc1ccccc1)C(=O)Nc1cccc2ccc(O)cc12 tested on human VR1 (Homo sapiens, UniProt Q8NER1).
10000

Lab note: record IC50 or EC50 of O=C(NCc1ccc(Cl)cc1)Nc1cccc2ccc(O)cc12 tested on human VR1 (Homo sapiens, UniProt Q8NER1).
4.9
